Cited source for all entries: the supplement of paper PMC4206461

The following compounds are shown together with reported respiration area under curve values.
system: Pseudomonas aeruginosa PA14 dppA1-A5 penta mutant + pBBR5.DppA1 (PA14_58350); assay: respiration area under curve with compound as sole nitrogen source, 24 h (OmniLog AUC (arbitrary units)); higher = more respiration / better utilisation as nitrogen source, active = 2000 or more

>  <compound>
CC[C@H](C)[C@H](NC(=O)[C@@H](N)Cc1ccccc1)C(=O)O (plate: PM7)

>  <measuredAttribute>
respiration area under curve

>  <measValue>
7890 (active)

$$$$
>  <compound>
CC(C)C[C@H](NC(=O)[C@@H](N)Cc1c[nH]c2ccccc12)C(=O)O (plate: PM7)

>  <measuredAttribute>
respiration area under curve

>  <measValue>
3710 (active)

$$$$
>  <compound>
CCC(C)C(N)C(=O)NC(CC(N)=O)C(=O)O (centres undefined) (plate: PM8)

>  <measuredAttribute>
respiration area under curve

>  <measValue>
7760 (active)

$$$$
>  <compound>
C[C@H](N)C(=O)N[C@@H](CO)C(=O)O (plate: PM6)

>  <measuredAttribute>
respiration area under curve

>  <measValue>
8180 (active)

$$$$
>  <compound>
CC(C)C[C@@H](N)C(=O)NCC(=O)O (plate: PM8)

>  <measuredAttribute>
respiration area under curve

>  <measValue>
0 (inactive)

$$$$
>  <compound>
N[C@@H](Cc1c[nH]c2ccccc12)C(=O)N[C@@H](CC(=O)O)C(=O)O (plate: PM7)

>  <measuredAttribute>
respiration area under curve

>  <measValue>
502 (inactive)

$$$$

# get_value(readout= respiration area under curve, system= Pseudomonas aeruginosa PA14 dppA1-A5 penta mutant + pBBR5.DppA1 (PA14_58350)) for NC(N)=NCCC[C@H](NC(=O)[C@@H](N)Cc1c[nH]c2ccccc12)C(=O)O (plate: PM7) 12000 (active)

# get_value(readout= respiration area under curve, system= Pseudomonas aeruginosa PA14 dppA1-A5 penta mutant + pBBR5.DppA1 (PA14_58350)) for C[C@H](NC(=O)[C@@H](N)Cc1ccc(O)cc1)C(=O)O (plate: PM7) 10300 (active)

# get_value(readout= respiration area under curve, system= Pseudomonas aeruginosa PA14 dppA1-A5 penta mutant + pBBR5.DppA1 (PA14_58350)) for CC[C@H](C)[C@H](N)C(=O)N[C@@H](Cc1ccccc1)C(=O)O (plate: PM6) 1500 (inactive)

###

tested on: Pseudomonas aeruginosa PA14 dppBCDF deletion mutant; assay: respiration area under curve with compound as sole nitrogen source, 24 h (OmniLog AUC (arbitrary units)); higher = more respiration / better utilisation as nitrogen source, active = 2000 or more; extreme values may be limits of the assay
measuredAttribute: respiration area under curve
When you answer, write just the number.

Below, each entry is followed by its recorded respiration area under curve result.
>  <compound>
CC(C)C[C@H](NC(=O)[C@@H](N)[C@@H](C)O)C(=O)O (plate: PM7)

>  <targetOrTestSystem>
Pseudomonas aeruginosa PA14 dppBCDF deletion mutant

>  <measValue>
1070

$$$$
>  <compound>
CC(C)C[C@H](N)C(=O)N1CCC[C@H]1C(=O)O (plate: PM8)

>  <targetOrTestSystem>
Pseudomonas aeruginosa PA14 dppBCDF deletion mutant

>  <measValue>
0

$$$$
>  <compound>
CC[C@H](C)[C@H](N)C(=O)N[C@@H](CCSC)C(=O)O (plate: PM6)

>  <targetOrTestSystem>
Pseudomonas aeruginosa PA14 dppBCDF deletion mutant

>  <measValue>
0

$$$$

Bench note: what respiration area under curve did N[C@@H](Cc1ccc(O)cc1)C(=O)N[C@@H](Cc1c[nH]c2ccccc12)C(=O)O (plate: PM7) show? 1770

Bench note: what respiration area under curve did N[C@@H](Cc1c[nH]c2ccccc12)C(=O)N[C@@H](CO)C(=O)O (plate: PM7) show? 106

Bench note: what respiration area under curve did N[C@@H](Cc1c[nH]c2ccccc12)C(=O)N[C@@H](CC(=O)O)C(=O)O (plate: PM7) show? 0
